molecular target: mutEGFR (D770_N771insNPG, T790) (Homo sapiens, UniProt P00533, INS770NPG/T790M); construct: exact insNPG construct not described; in-house EGFR proteins were N-terminal GST fusions from baculovirus/insect cells (borders R669-A1210 given only for WT, insSVD, insASV); experiment: mutEGFR (D770_N771insNPG, T790) kinase assay; type: biochemical; conditions: Table 2a, D770_N771insNPG
Sequence (P00533 with tags, fused parts or gaps INS770NPG/T790M limits assumed): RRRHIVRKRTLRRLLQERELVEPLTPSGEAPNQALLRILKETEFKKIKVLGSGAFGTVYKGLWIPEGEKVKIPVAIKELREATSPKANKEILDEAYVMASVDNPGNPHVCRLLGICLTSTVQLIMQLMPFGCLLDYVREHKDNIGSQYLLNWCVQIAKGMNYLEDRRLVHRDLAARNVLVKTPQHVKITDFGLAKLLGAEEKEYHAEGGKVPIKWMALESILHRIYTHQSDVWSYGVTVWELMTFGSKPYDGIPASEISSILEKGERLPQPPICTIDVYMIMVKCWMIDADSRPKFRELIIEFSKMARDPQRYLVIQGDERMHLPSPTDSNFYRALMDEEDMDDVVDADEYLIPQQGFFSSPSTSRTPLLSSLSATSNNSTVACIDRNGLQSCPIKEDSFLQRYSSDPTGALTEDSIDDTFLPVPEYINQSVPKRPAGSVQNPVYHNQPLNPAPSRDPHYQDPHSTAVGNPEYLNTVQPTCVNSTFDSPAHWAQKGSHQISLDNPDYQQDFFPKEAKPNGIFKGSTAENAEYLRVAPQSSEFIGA
readout type: pIC50
Conceptually, pIC50 converts a concentration in mol/L into minus its log10.

Examples from the recorded data:
• CN(C)C/C=C/C(=O)N1CCn2nc(-c3ccc(F)cc3)c(-c3ccnc(Nc4ccccc4)c3)c2C1 [Example 21] = 8.35
• C=CC(=O)N1Cc2c(-c3ccncc3)c(-c3ccc4sccc4c3)nn2C[C@H]1C [Example 277] = 9.82
• C=CC(=O)N1Cc2c(-c3ccncc3)c(-c3ccc(Cl)cc3)nn2C(C)C1 (racemic) [Example 281] = 9.44
• O=C(/C=C/CF)N1CCn2nc(-c3ccc(F)cc3)c(-c3ccncc3)c2C1 [Example 78] = 7.81
• CN(C)C/C=C/C(=O)N1CCn2nc(-c3ccc(OC(F)F)cc3)c(-c3ccncc3)c2C1 [Example 144] = 7.51

Name the recorded pIC50 for C=CC(=O)N1CCn2nc(-c3ccc(F)cc3)c(-c3ccnc(N)c3)c2C1 [Example 10] . 8.65

Look up pIC50: C=CC(=O)N1CCn2nc(-c3cccc(Cl)c3)c(-c3ccnc4[nH]cc(C)c34)c2C1 [Example 177] 7.75

State the recorded pIC50 for this entry: C=CC(=O)N1CCn2nc(-c3ccc(C(F)(F)F)cc3)c(-c3ccnc4[nH]c(C)c(C)c34)c2C1 [Example 56] 6.17

====

biological target: mutEGFR (D770_N771insSVD) (Homo sapiens, UniProt P00533, DUP768-770); construct: GST-EGFR #3 (SVD between D770 and N771); made in house; host or cells: Sf9 insect cells (baculovirus); assay: Exon20-Mutant-EGFR (D770_N771insSVD) kinase assay (TR-FRET); format: biochemical; details: mutEGFR (D770_N771insSVD) kinase assay IC50, Table 2a; D770_N771insSVD; 2 mM ATP
Sequence (P00533 with tags, fused parts or gaps DUP768-770): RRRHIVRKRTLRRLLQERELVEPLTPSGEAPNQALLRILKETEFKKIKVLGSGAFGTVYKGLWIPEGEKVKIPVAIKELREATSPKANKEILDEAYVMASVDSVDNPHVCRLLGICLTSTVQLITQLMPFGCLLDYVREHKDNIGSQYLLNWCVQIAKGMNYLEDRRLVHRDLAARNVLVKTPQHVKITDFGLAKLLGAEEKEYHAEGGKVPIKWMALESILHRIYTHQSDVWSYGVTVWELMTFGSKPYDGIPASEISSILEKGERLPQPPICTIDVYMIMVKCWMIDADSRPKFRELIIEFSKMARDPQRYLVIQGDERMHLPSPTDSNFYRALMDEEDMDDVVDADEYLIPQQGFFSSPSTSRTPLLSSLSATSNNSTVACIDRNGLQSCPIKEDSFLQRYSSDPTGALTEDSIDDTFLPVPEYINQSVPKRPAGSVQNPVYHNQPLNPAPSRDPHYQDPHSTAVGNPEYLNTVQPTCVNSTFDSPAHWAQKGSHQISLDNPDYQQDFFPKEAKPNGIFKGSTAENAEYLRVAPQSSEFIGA
Grouping by measured IC50 is done with the following cut points: low group: < 0.6 nM; middle group: ≥ 0.6 nM and < 8 nM; high group: ≥ 8 nM

Past entries and their recorded results:
- O=C(/C=C/CF)N1CCn2nc(-c3ccc(Cl)cc3F)c(-c3ccncc3)c2C1: middle group
- CC1Cn2nc(-c3ccc4ccsc4c3)c(-c3ccncc3)c2CN1C(=O)/C=C/CN(C)C (racemic): low group
- C=C(C)C(=O)N1CCn2nc(-c3ccc(F)cc3)c(-c3ccncc3)c2C1: high group
- C=CC(=O)N1CCn2nc(-c3ccc(F)cc3)c(-c3ccncc3)c2C1: middle group
- C=CC(=O)N1CCn2nc(-c3ccc(F)cc3)c(-c3ccnc(NC(=O)C4CC4)c3)c2C1: low group
- C=CC(=O)N1Cc2c(-c3ccncc3)c(-c3ccc(F)cc3)nn2C(C(=O)N(C)C)C1 (single isomer, unassigned; isomer 1): high group
- C=CC(=O)N1CCn2nc(-c3ccc(OC)cc3)c(-c3ccncc3)c2C1C (racemic): middle group
- C=CC(=O)N1Cc2c(-c3ccnc4[nH]cc(C)c34)c(-c3cccc(C#N)c3)nn2C[C@H]1C: high group
- CN(C)C/C=C/C(=O)N1CCn2nc(-c3ccc(C#N)cc3)c(-c3ccncc3)c2C1: high group
- C=CC(=O)N1Cc2c(-c3ccncc3)c(-c3ccc4cc(Cl)sc4c3)nn2CC1C (racemic): low group

# next compound below
Lab note: sort COC1CCN(C/C=C/C(=O)N2CCn3nc(-c4ccc(Cl)cc4)c(-c4ccncc4)c3C2)CC1 into the matching IC50 band. low group
